# System: MGC-803 (human gastric cancer) cells
# ASSAY_INFO: MTT cell growth inhibition, solid tumor cells
# Assay type: cell-based
# EXPERIMENTAL_CONTEXT: MGC-803, 72 h, MTT, read-out: IC90
MEASURED_METRIC: IC90 (µg/mL)

| COMPOUND | IC90 (µg/mL) |
| --- | --- |
| COc1ccc2cc1Oc1ccc(cc1)C[C@H]1c3cc(c(OC)cc3CCN1C)Oc1c(OCc3ccc(C(F)(F)F)cc3)c(OC)cc3c1[C@H](C2)N(C)CC3 [BS-FC-216] | 3.98 |
| C=C(C)COc1c(OC)cc2c3c1Oc1cc4c(cc1OC)CCN(C)[C@H]4Cc1ccc(cc1)Oc1cc(ccc1OC)C[C@@H]3N(C)CC2 [BS-FC-221] | 3.93 |
| COc1ccc2cc1Oc1ccc(cc1)C[C@H]1c3cc(c(OC)cc3CCN1C)Oc1c(OC3CCCC3)c(OC)cc3c1[C@H](C2)N(C)CC3 [BS-FC-220] | 3.96 |
